A collection of compounds and their measured viability, T/C
System: 991263-137-R1-J2-PDC complex spheroid viability;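 also: spheroids exposed to compounds for 7 days before readout; 100% = DMSO vehicle control viability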
Experiment: Anticancer human tumor 991263-137-R1-J2-PDC patient-derived colon adenocarcinoma cell line growth inhibition [POLQ]
Conditions: second compound 0.1 µM; first compound 0.0316 µM; stronger effect = lower value
MEASURE: viability, T/C (%)

>  <COMPOUND>
O=C(c1cc(Cc2n[nH]c(=O)c3ccccc23)ccc1F)N1CCN(C(=O)C2CC2)CC1 + COC1C(OC(N)=O)C(O)C(Oc2ccc3c(O)c(NC(=O)c4ccc(O)c(CC=C(C)C)c4)c(=O)oc3c2C)OC1(C)C

>  <QUANTITY_UNIT>
%

>  <OBSERVED_VALUE>
99.2

$$$$
>  <COMPOUND>
CC(C)n1c(=O)n(C)c2cnc3cc(F)c(-c4ccc(OCCCN5CCCCC5)nc4)cc3c21 + Nc1ccc(C#CCN(C(=O)Cc2ncc(C(F)(F)F)cc2C(F)(F)F)c2ccc(F)cc2)nn1

>  <QUANTITY_UNIT>
%

>  <OBSERVED_VALUE>
103

$$$$
>  <COMPOUND>
COc1ccc([C@@H](O)c2cc(-c3ncnc4cc(N5CCOCC5)ccc34)c(F)cc2Cl)nn1 + Nc1ccc(C#CCN(C(=O)Cc2ncc(C(F)(F)F)cc2C(F)(F)F)c2ccc(F)cc2)nn1

>  <QUANTITY_UNIT>
%

>  <OBSERVED_VALUE>
105

$$$$
>  <COMPOUND>
Cn1ncnc1[C@H]1c2n[nH]c(=O)c3cc(F)cc(c23)N[C@@H]1c1ccc(F)cc1 + Cc1cccc(N(C)C(=O)C2C(O)CCN2c2nc(C)cc(C(F)(F)F)c2C#N)c1

>  <QUANTITY_UNIT>
%

>  <OBSERVED_VALUE>
91.8

$$$$
>  <COMPOUND>
CCc1c2c(nc3ccc(O)cc13)-c1cc3c(c(=O)n1C2)COC(=O)[C@]3(O)CC + Nc1ccc(C#CCN(C(=O)Cc2ncc(C(F)(F)F)cc2C(F)(F)F)c2ccc(F)cc2)nn1

>  <QUANTITY_UNIT>
%

>  <OBSERVED_VALUE>
52.9

$$$$
>  <COMPOUND>
COc1cccc2c1C(=O)c1c(O)c3c(c(O)c1C2=O)CC(O)(C(=O)CO)CC3OC1CC(N)C(O)C(C)O1 (stereo not given) + Cc1cccc(N(C)C(=O)C2C(O)CCN2c2nc(C)cc(C(F)(F)F)c2C#N)c1

>  <QUANTITY_UNIT>
%

>  <OBSERVED_VALUE>
105

$$$$
>  <COMPOUND>
CCc1cc2c(N3CCc4c(cc(Cn5ccnc5)cc4-c4cn(C)nc4C(F)(F)F)C3=O)cc(C)nc2c(OC)n1 + Nc1ccc(C#CCN(C(=O)Cc2ncc(C(F)(F)F)cc2C(F)(F)F)c2ccc(F)cc2)nn1

>  <QUANTITY_UNIT>
%

>  <OBSERVED_VALUE>
105

$$$$
>  <COMPOUND>
CCc1cc2c(N3CCc4c(cc(Cn5ccnc5)cc4-c4cn(C)nc4C(F)(F)F)C3=O)cc(C)nc2c(OC)n1 + Cc1cccc(N(C)C(=O)C2C(O)CCN2c2nc(C)cc(C(F)(F)F)c2C#N)c1

>  <QUANTITY_UNIT>
%

>  <OBSERVED_VALUE>
109

$$$$
>  <COMPOUND>
C=CC(=O)N1CCN(c2nc(=O)n(-c3c(C)ccnc3C(C)C)c3nc(-c4c(O)cccc4F)c(F)cc23)C(C)C1 (stereo not given) + Cc1cccc(N(C)C(=O)C2C(O)CCN2c2nc(C)cc(C(F)(F)F)c2C#N)c1

>  <QUANTITY_UNIT>
%

>  <OBSERVED_VALUE>
114

$$$$
>  <COMPOUND>
CC1COCCN1c1cc(-c2ccnn2C)c2ccnc(-c3ccn[nH]3)c2n1 (stereo not given) + Cc1cccc(N(C)C(=O)C2C(O)CCN2c2nc(C)cc(C(F)(F)F)c2C#N)c1

>  <QUANTITY_UNIT>
%

>  <OBSERVED_VALUE>
125

$$$$
>  <COMPOUND>
CCCS(=O)(=O)Nc1ccc(F)c(C(=O)c2c[nH]c3ncc(-c4ccc(Cl)cc4)cc23)c1F + Cc1cccc(N(C)C(=O)C2C(O)CCN2c2nc(C)cc(C(F)(F)F)c2C#N)c1

>  <QUANTITY_UNIT>
%

>  <OBSERVED_VALUE>
103

$$$$
>  <COMPOUND>
CCCS(=O)(=O)Nc1ccc(F)c(C(=O)c2c[nH]c3ncc(-c4ccc(Cl)cc4)cc23)c1F + COC1C(OC(N)=O)C(O)C(Oc2ccc3c(O)c(NC(=O)c4ccc(O)c(CC=C(C)C)c4)c(=O)oc3c2C)OC1(C)C

>  <QUANTITY_UNIT>
%

>  <OBSERVED_VALUE>
82

$$$$
>  <COMPOUND>
CC1COCCN1c1cc(-c2ccnn2C)c2ccnc(-c3ccn[nH]3)c2n1 (stereo not given) + COC1C(OC(N)=O)C(O)C(Oc2ccc3c(O)c(NC(=O)c4ccc(O)c(CC=C(C)C)c4)c(=O)oc3c2C)OC1(C)C

>  <QUANTITY_UNIT>
%

>  <OBSERVED_VALUE>
98.2

$$$$
>  <COMPOUND>
C#Cc1c(F)ccc2cc(O)cc(-c3ncc4c(N5CC6CCC(C5)N6)nc(OCC56CCCN5CC(F)C6)nc4c3F)c12 (stereo not given) + COC1C(OC(N)=O)C(O)C(Oc2ccc3c(O)c(NC(=O)c4ccc(O)c(CC=C(C)C)c4)c(=O)oc3c2C)OC1(C)C

>  <QUANTITY_UNIT>
%

>  <OBSERVED_VALUE>
103

$$$$
>  <COMPOUND>
O=C(c1cc(Cc2n[nH]c(=O)c3ccccc23)ccc1F)N1CCN(C(=O)C2CC2)CC1 + Nc1ccc(C#CCN(C(=O)Cc2ncc(C(F)(F)F)cc2C(F)(F)F)c2ccc(F)cc2)nn1

>  <QUANTITY_UNIT>
%

>  <OBSERVED_VALUE>
101

$$$$
>  <COMPOUND>
CC(C)n1c(=O)n(C)c2cnc3cc(F)c(-c4ccc(OCCCN5CCCCC5)nc4)cc3c21 + COC1C(OC(N)=O)C(O)C(Oc2ccc3c(O)c(NC(=O)c4ccc(O)c(CC=C(C)C)c4)c(=O)oc3c2C)OC1(C)C

>  <QUANTITY_UNIT>
%

>  <OBSERVED_VALUE>
91.5

$$$$
>  <COMPOUND>
C=CCn1c(=O)c2cnc(Nc3ccc(N4CCN(C)CC4)cc3)nc2n1-c1cccc(C(C)(C)O)n1 + Cc1cccc(N(C)C(=O)C2C(O)CCN2c2nc(C)cc(C(F)(F)F)c2C#N)c1

>  <QUANTITY_UNIT>
%

>  <OBSERVED_VALUE>
107

$$$$
>  <COMPOUND>
O=C(Nc1ccc(O)c(NS(=O)(=O)c2ccc(F)cc2)c1)c1ccc(-c2ccccc2)cc1 + Nc1ccc(C#CCN(C(=O)Cc2ncc(C(F)(F)F)cc2C(F)(F)F)c2ccc(F)cc2)nn1

>  <QUANTITY_UNIT>
%

>  <OBSERVED_VALUE>
111

$$$$
>  <COMPOUND>
C#Cc1c(F)ccc2cc(O)cc(-c3ncc4c(N5CC6CCC(C5)N6)nc(OCC56CCCN5CC(F)C6)nc4c3F)c12 (stereo not given) + Cc1cccc(N(C)C(=O)C2C(O)CCN2c2nc(C)cc(C(F)(F)F)c2C#N)c1

>  <QUANTITY_UNIT>
%

>  <OBSERVED_VALUE>
97.8

$$$$
>  <COMPOUND>
COc1cc2cc(C(=O)CCC(=O)O)sc2cc1OC + Nc1ccc(C#CCN(C(=O)Cc2ncc(C(F)(F)F)cc2C(F)(F)F)c2ccc(F)cc2)nn1

>  <QUANTITY_UNIT>
%

>  <OBSERVED_VALUE>
116

$$$$
